- measurement target: human PDE2A1 (Homo sapiens, UniProt O00408)
- Construct: GST; purchased BPS Bioscience (San Diego, Calif.) 60020; host or cells: insect cells
- Sequence (O00408 1-920 isoform O00408-2): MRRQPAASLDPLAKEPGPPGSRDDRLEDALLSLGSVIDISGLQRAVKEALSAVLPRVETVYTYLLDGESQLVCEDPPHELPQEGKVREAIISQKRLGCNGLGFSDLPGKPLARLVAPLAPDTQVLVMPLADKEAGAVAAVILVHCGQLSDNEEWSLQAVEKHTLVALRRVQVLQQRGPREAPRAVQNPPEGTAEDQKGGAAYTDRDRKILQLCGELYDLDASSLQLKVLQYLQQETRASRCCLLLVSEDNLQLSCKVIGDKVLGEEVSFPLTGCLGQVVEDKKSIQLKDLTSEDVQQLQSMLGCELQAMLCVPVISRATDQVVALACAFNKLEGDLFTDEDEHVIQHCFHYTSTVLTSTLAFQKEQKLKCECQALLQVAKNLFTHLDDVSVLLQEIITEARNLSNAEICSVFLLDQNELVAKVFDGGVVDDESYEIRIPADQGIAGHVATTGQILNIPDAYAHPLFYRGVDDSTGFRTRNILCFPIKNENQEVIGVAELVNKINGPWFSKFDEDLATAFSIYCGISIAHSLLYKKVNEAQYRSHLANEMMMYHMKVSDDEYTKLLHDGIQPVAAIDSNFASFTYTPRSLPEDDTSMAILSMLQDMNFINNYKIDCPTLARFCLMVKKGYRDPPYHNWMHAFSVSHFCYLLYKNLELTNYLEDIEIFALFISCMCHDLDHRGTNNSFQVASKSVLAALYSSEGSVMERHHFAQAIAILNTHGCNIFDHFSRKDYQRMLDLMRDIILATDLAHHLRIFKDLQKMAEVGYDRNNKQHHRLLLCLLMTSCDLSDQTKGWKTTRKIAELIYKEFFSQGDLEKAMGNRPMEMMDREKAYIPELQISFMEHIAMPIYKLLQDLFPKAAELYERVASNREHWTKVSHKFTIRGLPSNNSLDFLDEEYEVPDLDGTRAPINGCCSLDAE
- test name: PDE2 IMAP FP inhibition assay, human enzyme (PDE selectivity panel format)
- Type: biochemical
- assay setup: Lab B; read-out: Human PDE2 Ki (nM) Lab B
test readout: Ki (nM)
Provide only the numeric value, understood in nM.

These recorded examples may help you get a feel for the data.
- Cc1nc(-n2ccc([C@H](C)c3ccc(C(F)(F)F)cc3)n2)cc(=O)[nH]1 (single isomer, unassigned) [Example 5]: 174
- COc1ccc(Cc2nc(-n3ccc(C(C)c4ccc(C(F)(F)F)cc4)n3)cc(=O)[nH]2)cc1OC (single isomer, unassigned) [Example 134]: 66.6
- Cc1nc(-c2cnn(Cc3ccc(OC(F)(F)F)cc3)c2)cc(=O)[nH]1: 829

Q) Look up Ki for this compound: Cc1nc(-n2cc([C@]3(c4ccc(C(F)(F)F)cc4)CCCO3)cn2)cc(=O)[nH]1 (single isomer, unassigned) [Example 21]
A) 199

----------
- measurement target: Rhesus PDE2A3 (Macaca mulatta, UniProt B3VTJ2)
- Construct: made in house; host or cells: AD293 cells, transient transfection, pcDNA3.3-TOPO; lysate supernatant used as enzyme
- Sequence (B3VTJ2 1-941): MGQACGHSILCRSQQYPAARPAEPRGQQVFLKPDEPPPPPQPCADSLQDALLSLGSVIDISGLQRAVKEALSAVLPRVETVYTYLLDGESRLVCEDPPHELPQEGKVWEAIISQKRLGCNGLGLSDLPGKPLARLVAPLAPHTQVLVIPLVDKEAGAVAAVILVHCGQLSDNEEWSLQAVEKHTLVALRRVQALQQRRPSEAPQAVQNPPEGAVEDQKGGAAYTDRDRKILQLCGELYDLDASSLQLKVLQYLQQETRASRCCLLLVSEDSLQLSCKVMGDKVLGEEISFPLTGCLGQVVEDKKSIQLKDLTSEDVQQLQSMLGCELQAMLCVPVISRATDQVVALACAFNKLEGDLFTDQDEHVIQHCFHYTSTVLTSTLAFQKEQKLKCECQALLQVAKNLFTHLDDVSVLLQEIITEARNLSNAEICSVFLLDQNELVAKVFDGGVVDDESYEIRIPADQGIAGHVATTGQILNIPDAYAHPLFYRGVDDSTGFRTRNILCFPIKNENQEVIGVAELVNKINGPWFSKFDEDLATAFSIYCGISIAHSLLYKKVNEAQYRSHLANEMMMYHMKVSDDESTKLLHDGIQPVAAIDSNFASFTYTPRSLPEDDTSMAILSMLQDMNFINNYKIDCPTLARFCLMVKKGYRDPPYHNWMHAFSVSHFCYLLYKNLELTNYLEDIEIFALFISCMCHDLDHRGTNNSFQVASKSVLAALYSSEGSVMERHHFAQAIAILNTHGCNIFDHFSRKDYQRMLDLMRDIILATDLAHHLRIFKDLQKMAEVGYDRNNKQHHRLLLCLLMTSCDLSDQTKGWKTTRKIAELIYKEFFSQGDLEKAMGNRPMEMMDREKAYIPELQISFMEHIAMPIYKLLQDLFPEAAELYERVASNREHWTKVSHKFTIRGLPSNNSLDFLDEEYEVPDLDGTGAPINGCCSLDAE
- test name: PDE2 fluorescence polarization (IMAP FP) inhibition assay, rhesus enzyme
- Type: biochemical, rhesus macaque
- assay setup: Lab B; read-out: Rhesus PDE2 Ki (nM) Lab B
For each record, check the reported Ki: if it is below 200 nM write YES, else write NO.

Here are 2 compounds together with their reported answers.
- Cc1nc(-n2cc(C(C)c3ccc(C(F)(F)F)c(F)c3)cn2)cc(=O)[nH]1 (single isomer, unassigned) [Example 50]: NO
- Cc1nc(-c2ccnn2C(C)c2ccc(C(F)(F)F)cc2)cc(=O)[nH]1 (centres unmarked): NO

Q) Lab note: Ki threshold 200 nM. Does this compound come in strictly under it? CC(C)c1nc(-c2cnn(C(C)c3ccc(C(F)(F)F)cc3F)c2)cc(=O)[nH]1 (centres unmarked)
A) YES

Q) Ki under 200 nM? Item: COc1ccc(Cc2nc(-c3cnn(C(C)c4ccc(S(F)(F)(F)(F)F)cc4)c3)cc(=O)[nH]2)cc1OC (single isomer, unassigned) [Example 65]
A) YES

Q) Decide: Ki of Cc1nc(-c2cc([C@H](C)c3ccc(C(F)(F)F)cc3)[nH]n2)cc(=O)[nH]1 (single isomer, unassigned) [Example 23] strictly below 200 nM?
A) YES

Q) Take the compound Cc1nc(-c2cnn(C(C)c3ccc(S(F)(F)(F)(F)F)cc3)c2)cc(=O)[nH]1 (single isomer, unassigned) [Example 62] and say whether its Ki is less than 200 nM.
A) YES

Q) # strict comparison: is reported Ki < 200 nM? input = COc1ccc(Cc2nc(-c3cnn(C(C)c4ccc(S(F)(F)(F)(F)F)cc4)c3)cc(=O)[nH]2)cc1OC (single isomer, unassigned) [Example 64]
A) YES

Q) Ki under 200 nM? Item: Cc1nc(-c2cc([C@@H](C)c3ccc(C(F)(F)F)cc3)n(C)n2)cc(=O)[nH]1 (single isomer, unassigned) [Example 25]
A) NO

Q) Does the reported Ki of the following compound sit strictly below 200 nM? Cc1nc(-c2ccn(C(C)c3cccc(C(F)(F)F)c3)n2)cc(=O)[nH]1 (centres unmarked)
A) NO

Q) Would you kindly verify if Ki of Cc1nc(-c2cnn(C(C)c3ccc(C(F)(F)F)cc3C)c2)cc(=O)[nH]1 (single isomer, unassigned) [Example 57] is strictly less than 200 nM?
A) YES

Q) Is it true that Ki reported for CCCc1ccc(C(C)c2cnn(-c3cc(=O)[nH]c(C)n3)c2)cc1 (centres unmarked) is less than 200 nM?
A) NO

Q) Here's an entry: Cc1nc(-n2cc(C(C)c3ccc(C(C)(C)C)cc3)cn2)cc(=O)[nH]1 (centres unmarked) . Is its Ki below 200 nM?
A) NO

Q) Confirm or reject: Ki of CCC(c1ccc(C(F)(F)F)cc1)c1cnn(-c2cc(=O)[nH]c(C)n2)c1 (centres unmarked) lies strictly below 200 nM
A) YES

Q) Report whether reported Ki is lower than 200 nM (strictly) for Cc1nc(-c2ccn(C(C)c3ccc(F)cc3)n2)cc(=O)[nH]1 (centres unmarked)
A) NO

Q) Lab note: confirm whether the reported Ki for this compound is below 200 nM, equality not counting. compound: Cc1nc(-c2cnn(C(C)c3ccc(F)cc3)c2)cc(=O)[nH]1 (centres unmarked)
A) NO

Q) Just wondering, is Ki of Cc1nc(-n2cc(C(c3ccc(C(F)(F)F)cc3)C(C)C)cn2)cc(=O)[nH]1 (centres unmarked) below 200 nM?
A) YES

Q) Lab note: confirm whether the reported Ki for this compound is below 200 nM, equality not counting. compound: Cc1nc(-n2cc([C@](C)(O)c3ccc(C(F)(F)F)cc3F)cn2)cc(=O)[nH]1 (single isomer, unassigned) [Example 16]
A) YES

Q) Problem: For the compound Cc1nc(-c2ccn(C(C)c3ccc(C(F)(F)F)cc3)n2)cc(=O)[nH]1 (single isomer, unassigned) [Example 77] , is Ki under 200 nM?
A) NO

Q) Take the compound Cc1nc(-c2cc(C(C)c3ccc(C(F)(F)F)cc3)nn2C)cc(=O)[nH]1 (single isomer, unassigned) [Example 132] and say whether its Ki is less than 200 nM.
A) NO

Q) State whether 200 nM exceeds Ki recorded for Cc1nc(-n2cc([C@](C)(O)c3ccc(C(F)(F)F)cc3F)cn2)cc(=O)[nH]1 (single isomer, unassigned) [Example 15] .
A) YES

----------
- measurement target: Rhesus PDE2A3 (Macaca mulatta, UniProt B3VTJ2)
- Construct: made in house; host or cells: AD293 cells, transient transfection, pcDNA3.3-TOPO; lysate supernatant used as enzyme
- test name: PDE2 fluorescence polarization (IMAP FP) inhibition assay, rhesus enzyme
- Assay type: biochemical, rhesus macaque
- assay setup: Lab B; read-out: Rhesus PDE2 Ki (nM) Lab B
test readout: log10 Ki (log10 of the value in nM)
Recorded Ki (log10, nM)

Example compounds with recorded log10 Ki:
* Cc1nc(-c2ccn(C(C)c3ccc(OC(F)(F)F)cc3)n2)cc(=O)[nH]1 (stereo not drawn) | 3.51
* Cc1nc(-c2cnn(C(C)c3ccc(OC(F)(F)F)cc3)c2)cc(=O)[nH]1 (single isomer, unassigned) [Example 128] | 2.77
* Cc1nc(-n2cc(C(C)c3ccc4c(c3)OCC4(C)C)cn2)cc(=O)[nH]1 (stereo not drawn) | 3.09
* COc1ccc(Cc2nc(-n3cc(C(C)c4ccc(C(F)(F)F)cc4)cn3)cc(=O)[nH]2)cc1OC (stereo not drawn) | -0.22
* COc1cccc(Cc2nc(-c3cnn(C(C)c4ccc(C(F)(F)F)cc4F)c3)cc(=O)[nH]2)c1 (single isomer, unassigned) [Example 141] | 0.94
* Cc1nc(-n2cc(C(C)c3ccc(C(F)(F)F)cc3F)cn2)cc(=O)[nH]1 (single isomer, unassigned) [Example 53] | 1.81
* Cc1nc(-n2cc(C(C)c3ccc(C(F)(F)F)cc3F)cn2)cc(=O)[nH]1 (single isomer, unassigned) [Example 52] | 0.86
* COc1ccc(Cc2nc(-n3ccc(C(C)c4ccc(C(F)(F)F)cc4)n3)cc(=O)[nH]2)cc1OC (single isomer, unassigned) [Example 133] | 1.81

Q) # value lookup — system Rhesus PDE2A3 (Macaca mulatta, UniProt B3VTJ2), readout log10 Ki, item CCC(c1ccc(C(F)(F)F)cc1F)n1cc(-c2cc(=O)[nH]c(C)n2)cn1 (stereo not drawn)
A) 1.29

Q) Any idea what log10 Ki came out for COc1ccc(Cc2nc(-c3cnn(C(C)c4ccc(C(F)(F)F)cc4)c3)cc(=O)[nH]2)cc1OC (single isomer, unassigned) [Example 60] on Rhesus PDE2A3 (Macaca mulatta, UniProt B3VTJ2)?
A) 0.38

Q) Observed log10 Ki on Rhesus PDE2A3 (Macaca mulatta, UniProt B3VTJ2) for CC(c1ccc(C(F)(F)F)cc1F)n1cc(-c2cc(=O)[nH]c(Cc3ccccc3)n2)cn1 (stereo not drawn) , please.
A) 1.24

Q) Kindly state the measured log10 Ki obtained for Cc1nc(-c2cnn(C(C)c3cccc(C(F)(F)F)c3)c2)cc(=O)[nH]1 (stereo not drawn) with Rhesus PDE2A3 (Macaca mulatta, UniProt B3VTJ2).
A) 3.80

Q) Query for Rhesus PDE2A3 (Macaca mulatta, UniProt B3VTJ2): what log10 Ki does the record show for Cc1nc(-c2ccn(C(C)c3ccc(C(F)(F)F)cc3)n2)cc(=O)[nH]1 (single isomer, unassigned) [Example 78] ?
A) 2.50

Q) Form field - read-out: log10 Ki; system: Rhesus PDE2A3 (Macaca mulatta, UniProt B3VTJ2); submitted item: COCCc1ccc(C(C)c2cnn(-c3cc(=O)[nH]c(C)n3)c2)cc1 (stereo not drawn)
A) 3.86

Q) What value of log10 Ki on Rhesus PDE2A3 (Macaca mulatta, UniProt B3VTJ2) does Cc1nc(-n2cc(C(C)c3ccc4c(c3)COCC4)cn2)cc(=O)[nH]1 (stereo not drawn) have?
A) 3.39
